Molecular target: AKR1B1 (Homo sapiens)
Construct: 6xHis; made in house; host or cells: E. coli BL21 (DE3)
Assay: AKR1B1-catalysed glyceraldehyde (GA) reduction, NADPH absorbance decrease at 340 nm
Type: biochemical
Details: GA at KM 50 μM; 200 μM NADPH; pH 7.4; 37 °C; mean ± SD, at least three experiments
Reported IC50 values are given for each entry in this list.
Provide only the numeric value, understood in µM.

{"columns": ["COMPOUND", "OBSERVED PROPERTY", "REPORTED VALUE"],
 "data": [
  ["CC(C)=CCc1c(O)cc(O)c2c1O[C@H](c1ccc(O)cc1)CC2=O [8-PN, 8-prenylnaringenin]", "IC50", 0.81]
]}

## Input For COc1cc(O)c(CC=C(C)C)c(O)c1C(=O)/C=C/c1ccc(O)cc1 [XN, xanthohumol] , what is its reported IC50?
## Output 9.11

## Input Can you check COc1cc(O)c(CC=C(C)C)c2c1C(=O)CC(c1ccc(O)cc1)O2 (stereo not drawn) [IX, isoxanthohumol] next?
## Output 0.57

----------
Biological target: AKR1B10 (Homo sapiens, UniProt O60218)
Construct: 6xHis; made in house; host or cells: E. coli BL21 (DE3)
Sequence (O60218 whole entry): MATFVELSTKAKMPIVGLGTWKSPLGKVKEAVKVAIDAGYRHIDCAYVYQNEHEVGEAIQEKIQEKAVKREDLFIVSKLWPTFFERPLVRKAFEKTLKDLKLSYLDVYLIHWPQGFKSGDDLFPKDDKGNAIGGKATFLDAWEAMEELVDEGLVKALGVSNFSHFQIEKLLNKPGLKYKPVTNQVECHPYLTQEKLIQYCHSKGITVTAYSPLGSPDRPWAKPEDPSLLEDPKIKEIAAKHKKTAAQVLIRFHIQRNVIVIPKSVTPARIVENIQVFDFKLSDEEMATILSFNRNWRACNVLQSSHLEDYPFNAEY
Assay: AKR1B10-catalysed farnesal reduction (physiological substrate)
Format: biochemical
Conditions: farnesal at KM 5 μM; Morrison equation; mean ± SD
OBSERVED PROPERTY: Ki (µM)
Quick reminder: number only, in µM, skip the unit.

{"columns": ["MOLECULE", "UNIT SYMBOL", "Ki"],
 "data": [
  ["COc1cc(O)c(CC=C(C)C)c2c1C(=O)CC(c1ccc(O)cc1)O2 (stereo not drawn)", "µM", 2.25],
  ["CC(C)=CCc1c(O)cc(O)c2c1O[C@H](c1ccc(O)cc1)CC2=O", "µM", 1.95]
]}

Now look at this one.
## Input Find the recorded Ki belonging to COc1cc(O)c(CC=C(C)C)c(O)c1C(=O)/C=C/c1ccc(O)cc1 and report it.
## Output 20.1

----------
Target: AKR1B1 (Homo sapiens, UniProt P15121)
Construct: 6xHis; made in house; host or cells: E. coli BL21 (DE3)
Test: AKR1B1-catalysed glucose reduction (physiological substrate)
Format: biochemical
Conditions: glucose at KM 32 mM; mean ± SD, at least three experiments
Protocol: Catalytic properties were determined by measuring the decrease in absorbance at 340 nm at 37 °C (Cary 100 scan photometer, Varian, Pal Alto, CA, USA). A reaction mixture without inhibitor consisted of different concentrations of substrate (see Table 1 for details), 200 μM NADPH, 0.1 M NaH2PO4 buffer (pH 7.4) and an appropriate amount of enzyme in a total assay volume of 0.8 ml. […] The percentage of inhibition was calculated considering the activity in the absence of inhibitor to be 100%. […]
Measured pIC50, listed per entry.
# log scale: pIC50 equals minus log10 of the concentration in mol/L

{"columns": ["COMPOUND", "ASSAY SYSTEM", "pIC50"],
 "data": [
  ["CC(C)=CCc1c(O)cc(O)c2c1O[C@H](c1ccc(O)cc1)CC2=O [8-PN, 8-prenylnaringenin]", "AKR1B1 (Homo sapiens, UniProt P15121)", 5.73],
  ["COc1cc(O)c(CC=C(C)C)c2c1C(=O)CC(c1ccc(O)cc1)O2 (stereo not drawn) [IX, isoxanthohumol]", "AKR1B1 (Homo sapiens, UniProt P15121)", 6.06]
]}

Query compound follows.
## Input Returns the measured pIC50 for the input compound. Input: COc1cc(O)c(CC=C(C)C)c(O)c1C(=O)/C=C/c1ccc(O)cc1 [XN, xanthohumol]
## Output 4.54
